SYSTEM NAME: pooled human IgG (human IgG1, 2, 3 and 4) (human); further: test concentration or dose not given here
ASSAY SUMMARY: cell-based or functional assay
MEASUREMENT NAME: Enzyme Activity Endpoint Assay: scIgG (ng/µL)
Give a bare numeral; the unit ng/µL is implied.

Lookup result for PRT-388 (enzyme) MVTSVWTKGVTPPTNFTYGEDVLHAPYVANQGWYDITKTFNGKDTLLCGAATAGNMLHWWFDQNKEQIENYLKKHPEKQKINFNGEQMFDVKEAIDTKDSQLDSKLFEYFKEKAFPYLSTKHLGVFPDHVIDMFINGYRLSLTNHGPTPVKRGSKDPRGGIFDAVFTRGDQSKLLTNRHDFKEKTLKEISDLIKQELTEGKALGISHTYANVRINHVINLWGADFDAEGNLEAIYVTDSDSNASIGMKKYFVGVNSNGKVAISAKEIEEDNIGAQVLGLFTLSTGQDIWNQTN ; measured Enzyme Activity Endpoint Assay: scIgG: 222
